# System Name: V1a (Homo sapiens, UniProt P37288)
# Sequence (P37288 whole entry): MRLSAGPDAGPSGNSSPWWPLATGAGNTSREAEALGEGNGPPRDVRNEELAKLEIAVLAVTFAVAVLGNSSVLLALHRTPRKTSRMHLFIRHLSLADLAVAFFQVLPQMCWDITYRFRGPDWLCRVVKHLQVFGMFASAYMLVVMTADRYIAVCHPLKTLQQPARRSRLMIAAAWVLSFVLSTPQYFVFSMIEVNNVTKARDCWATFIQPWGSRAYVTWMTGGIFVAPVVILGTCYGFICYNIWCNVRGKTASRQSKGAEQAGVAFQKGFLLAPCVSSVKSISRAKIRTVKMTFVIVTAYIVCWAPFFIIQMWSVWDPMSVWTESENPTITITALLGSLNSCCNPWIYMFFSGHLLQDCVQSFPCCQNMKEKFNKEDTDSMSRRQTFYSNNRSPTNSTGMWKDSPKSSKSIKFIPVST
# Test Protocol: In-vitro receptor binding assay (3H-arginine-8-vasopressin), V1a
# Test Settings: @ 0.1 μM; read-out: Receptor Binding V1a (% Inh. @ concentration in μM)
inhibition at 0.1 µM: recorded values

Check out these entries, answers already filled in.
COCCN1CCN(CC2=CC3(CC2)CCN(C(=O)c2ccc(NC(=O)c4cc(F)ccc4C)cc2Cl)c2ccccc2C3)CC1 (centres unmarked) [Compound 140] :: 41%
CNCC1=CC2(CC1)CCN(C(=O)c1ccc(NC(=O)c3cc(F)ccc3C)cc1Cl)c1ccccc1C2 (centres unmarked) [Compound 139] :: 0%
CC(=O)N1CCC(Oc2ccc(C(=O)N3CCC4(C=CCCC4)Cc4ccccc43)cc2)CC1 (centres unmarked) [Compound 224] :: 41%
Cc1ccc(F)cc1C(=O)Nc1ccc(C(=O)N2CCC3(C=C(CN4CCN(c5ccncc5)CC4)CC3)Cc3ccccc32)c(Cl)c1 (centres unmarked) [Compound 142] :: 25%
Cc1ccc(F)cc1C(=O)Nc1ccc(C(=O)N2CCC3(C=C(C(=O)NCCN(C)C)CC3)Cc3ccccc32)c(Cl)c1 (centres unmarked) [Compound 136] :: 60%

Which value of inhibition at 0.1 µM has been reported for CCOC(=O)Oc1c(OC)cc(C(=O)N2CCC3(C=CCCC3)Cc3ccccc32)cc1OC (centres unmarked) [Compound 206] in the records?
9%

Which value of inhibition at 0.1 µM has been reported for O=C(Nc1ccc(C(=O)N2CCC3(C=CCCC3)Cc3ccccc32)c(Cl)c1)c1ccccc1-c1ccccc1 (centres unmarked) [Compound 118] in the records?
40%

Which value of inhibition at 0.1 µM has been reported for CC(=O)N1CCC(Oc2ccc(C(=O)N3CCC4(C=CCCC4)Cc4ccccc43)cc2F)CC1 (centres unmarked) [Compound 168] in the records?
50%

* * *

# System Name: V1a (Homo sapiens, UniProt P37288)
# Test Protocol: In-vitro receptor binding assay (3H-arginine-8-vasopressin), V1a
Decision: IC50 beneath 0.03 µM gives 1; IC50 meeting or exceeding 0.03 µM gives 0.

COc1cc(-n2ccc(CO)c2)ccc1C(=O)N1CCC2(C=C(C(=O)NCCN(C)C)CC2)Cc2ccccc21 (stereo not drawn) [Compound 196] :: 0
CC(=O)Nc1ccc(C(=O)N2CCC3(C=CCCC3)Cc3ccccc32)cc1 (stereo not drawn) [Compound 57] :: 0
CN(C)c1ccc(C(=O)N2CCC3(C=CCCC3)Cc3cc(Cl)c(Cl)cc32)cc1 (stereo not drawn) [Compound 72] :: 0
Cc1ccc(F)cc1C(=O)Nc1ccc(C(=O)N2CCC3(C=C(C(=O)NCCCN(C)C)CC3)Cc3ccccc32)cc1 (stereo not drawn) [Compound 14] :: 1
CCCCOc1ccc(C(=O)N2CCC3(C=C(C(=O)OC)CC3)Cc3ccccc32)cc1 (stereo not drawn) [Compound 205] :: 0
Cc1ccc(-c2ccccc2C(=O)Nc2ccc(C(=O)N3CCC4(C=CCCC4)Cc4ccccc43)cc2)cc1 (stereo not drawn) [Compound 114] :: 0

A record lists O=C(c1ccc(-n2cccn2)c(F)c1)N1CCC2(C=CCCC2)Cc2ccccc21 (stereo not drawn) [Compound 156] . Is its IC50 below 0.03 µM?
0

A record lists O=C(NCCN1CCCC1)C1=CC2(CC1)CCN(C(=O)c1ccc(NC(=O)c3ccccc3F)cc1)c1ccccc1C2 (stereo not drawn) [Compound 19] . Is its IC50 below 0.03 µM?
1

A record lists COc1cc(C(=O)N2CC[C@@]3(C=C(C(=O)NCCN(C)C)CC3)Cc3ccccc32)ccc1-n1ccc(CO)c1 [Compound 198] . Is its IC50 below 0.03 µM?
1
